- system-tested: enzyme I (Escherichia coli, UniProt P08839)
- Construct: made in house
- assay-info: Pyruvate formation coupled to lactate dehydrogenase (uncoupling / phosphatase activity)
- Format: biochemical, E. coli
- details: μM NADH consumed per μM peptide per one hour multiplied by the IC50 (μM)
No end group written: not given here.
# label = criterion met if uncoupling P1/peptide (x IC50/h) >= 40 x IC50/h else criterion not met

Study these solved cases before continuing.
GLRGKTRVHYLVLG [peptide 1]; criterion not met
Ac-DGARLHYLF [compound 10]; criterion not met
KISRHGRPTG [compound 6]; criterion met
DGARLHYLF [compound 9]; criterion met
KISRHGKRGK [compound 5]; criterion not met
MSRHRN [compound 16, MSRHRN]; criterion met
SGRKSTRVHHWLLVL [compound 2]; criterion not met
KMSRHRKPGA [compound 3]; criterion not met

Now, please, on to the next substance.
// query Form field: uncoupling P1/peptide (x IC50/h) at least 40 x IC50/h? Entry: RLHYLF [compound 8, RLHYLF]
// result criterion met
